CPD SMILES: CC(=O)SCCN(CCc1ccccc1)C(=O)N[C@@H](Cc1ccc(-c2ccccc2)c([N+](=O)[O-])c1)C(=O)NCCN(C)C
melting point, °C: 90

CPD SMILES: CCN(CC)CCNC(=O)[C@H](Cc1ccc([N+](=O)[O-])cc1)NC(=O)N(CCSC(C)=O)CCc1ccccc1
melting point, °C: 65

CPD SMILES: CC(=O)SCCN(CCc1ccccc1)C(=O)N[C@@H](Cc1ccc(F)cc1)C(=O)NCCN(C)C
melting point, °C: 90

CPD SMILES: CC(=O)SCCN(CCc1ccccc1)C(=O)N[C@@H](Cc1ccc([N+](=O)[O-])cc1)C(=O)NCCN(C)C1CCCCC1
melting point, °C: 90

----------
CPD SMILES: CC(=O)SCCN(CCc1ccccc1)C(=O)N[C@@H](Cc1ccc([N+](=O)[O-])cc1)C(=O)NCCN1C(=O)c2ccccc2C1=O
melting point: 110 °C

CPD SMILES: CC(=O)Nc1ccc(C[C@H](NC(=O)N(CCSC(C)=O)CCc2ccccc2)C(=O)NCCN(C)C)cc1
melting point: 95 °C (dec.)

CPD SMILES: CC(=O)SCCN(CCc1ccccc1)C(=O)N[C@@H](Cc1ccccc1)C(=O)N1CCN(CC(=O)O)CC1
melting point: 230 °C (dec.)

Values compiled from patent US6492370B1.
